- Test system: Echinochloa crus-galli
- Experimental protocol: Pre-emergence herbicidal action, ECHCG
- Type: in vivo
- Design: key: % activity: 100 = plants have died, 0 = like control plants
- Particulars: comparative experiment, 80 g of a.i./ha
- Text: 1. Pre-Emergence Herbicidal Action Against Harmful Plants Seeds of monocotyledonous and dicotyledonous weed plants and crop plants are laid out in sandy loam soil in wood-fiber pots and covered with soil. […] The damage to the test plants is scored visually after a test period of 3 weeks by comparison with untreated controls (herbicidal activity in percent (%): 100% activity=the plants have died, 0% activity=like control plants). […]
Hi there, I'd appreciate the recorded Herbicidal action against ECHCG for every entry that follows.
Number only, no unit.

Consider the compound CCS(=O)(=O)c1c(C(F)(F)F)ccc(C(=O)Nc2nnnn2C)c1Br [Example V-13, reference compound] and give its recorded Herbicidal action against ECHCG.
0

// fetch Herbicidal action against ECHCG given entry CCSCc1c(C(F)(F)F)ccc(C(=O)Nc2nnnn2C)c1Br
100

Please give the documented Herbicidal action against ECHCG of CCS(=O)(=O)Cc1c(C(F)(F)F)ccc(C(=O)Nc2nnnn2C)c1Br
100

For CC[S+]([O-])Cc1c(C(F)(F)F)ccc(C(=O)Nc2nnnn2C)c1Br (racemic) , write its Herbicidal action against ECHCG.
100

====

- System: Abutilon theophrasti
- Experimental protocol: Post-emergence herbicidal action, ABUTH
- Type: in vivo
- Design: key: % herbicidal action vs untreated; 100 = plants died, 0 = like control
- Particulars: comparative experiment, post-emergence, 20 g of a.i./ha
Experimental readout: Herbicidal action against ABUTH

Name the recorded Herbicidal action against ABUTH of the item CC[S+]([O-])c1c(C(F)(F)F)ccc(C(=O)Nc2nnnn2C)c1Br (stereo not shown) [Example V-12, reference compound] in your answer.
0

Retrieve Herbicidal action against ABUTH measured for CC[S+]([O-])Cc1c(C(F)(F)F)ccc(C(=O)Nc2nnnn2C)c1Br (racemic) [Example 1-384] and print it.
90

Specify measured Herbicidal action against ABUTH for CCSCc1c(C(F)(F)F)ccc(C(=O)Nc2nnnn2C)c1Br [Example 1-383] .
90

Please indicate Herbicidal action against ABUTH recorded for CCSc1c(C(F)(F)F)ccc(C(=O)Nc2nnnn2C)c1Br [Example V-11, reference compound]
0

====

Kindly state herbicidal action LOLMU for each of the entries shown.
- Test system: Lolium multiflorum
- Experimental protocol: Post-emergence herbicidal action, LOLMU
- Type: in vivo
- Design: key: % herbicidal action: 100 = plants died, 0 = like control
- Particulars: Dosage 80 g/ha
Please give the numeric answer without any surrounding text.

Supply recorded herbicidal action LOLMU for CCn1nnnc1NC(=O)c1ccc(C(F)F)c(CSC)c1Cl here.
80

Find the measured herbicidal action LOLMU of Cc1c(C(=O)Nc2nnnn2C)ccc(C(F)(F)F)c1CS(C)(=O)=O and report it.
80

For the compound CCS(=O)(=O)Cc1c(C(F)F)ccc(C(=O)Nc2nnnn2C)c1Cl , give its reported herbicidal action LOLMU.
90

Identify measured herbicidal action LOLMU associated with CSCc1c(C(F)F)ccc(C(=O)Nc2nnnn2C)c1Cl
80

====

- Tested on: Setaria viridis
- Experimental protocol: Post-emergence herbicidal action, SETVI
- Format: in vivo
- Set-up: key: % herbicidal action vs untreated; 100 = plants died, 0 = like control
- Particulars: comparative experiment, post-emergence, 5 g of a.i./ha
Experimental readout: Herbicidal action against SETVI
Lab note: record just the number, no unit beside it.

Consider the compound CSCc1c(C(F)F)ccc(C(=O)Nc2nnnn2C)c1Cl and give its recorded Herbicidal action against SETVI.
100

Quick one: give measured Herbicidal action against SETVI for CCSCc1c(C(F)(F)F)ccc(C(=O)Nc2nnnn2C)c1SCC
70

Indicate the recorded Herbicidal action against SETVI value for this compound: CCSc1c(C(=O)Nc2nnnn2C)ccc(C(F)(F)F)c1SCC [Example V-3, reference compound]
0

Identify measured Herbicidal action against SETVI corresponding to CCSCc1c(C(F)F)ccc(C(=O)Nc2nnnn2C)c1Cl
100
